Tested on: Cercospora beticola
Test: Antifungal activity against Cercospora beticola on potato sucrose agar medium at 28 or 20 degC for 2 or 3 days
Type: functional
Metric: MIC

Asked: GET /values?readout=MIC&item= `O[C@@]1(Cn2cncn2)CCC[C@H]1Cc1ccc(Cl)cc1`
Given back: > 100 µg/mL

Asked: Then `CCCC[C@H]1CC[C@@H](Cc2ccc(Cl)cc2)[C@]1(O)Cn1cncn1` ?
Given back: > 100 µg/mL

Asked: Then `CC(C)C[C@@H]1CC[C@H](Cc2ccc(Cl)cc2)[C@@]1(O)Cn1cncn1` ?
Given back: > 100 µg/mL

Asked: Then `CCCC[C@@H]1CC[C@H](Cc2ccc(Cl)cc2)[C@@]1(O)Cn1cncn1` ?
Given back: > 100 µg/mL

Asked: Then `CC[C@@H]1CC[C@@H](Cc2ccc(Cl)cc2)[C@]1(O)Cn1cncn1` ?
Given back: 50 µg/mL

Asked: Then `CC[C@@H]1CC[C@H](Cc2ccc(Cl)cc2)[C@@]1(O)Cn1cncn1` ?
Given back: 50 µg/mL

Asked: Then `CCC[C@H]1CC[C@@H](Cc2ccc(Cl)cc2)[C@]1(O)Cn1cncn1` ?
Given back: > 100 µg/mL

Asked: Then `CC(C)[C@@H]1CC[C@H](Cc2ccc(Cl)cc2)[C@@]1(O)Cn1cncn1` ?
Given back: 25 µg/mL
